Numbers sourced from the antibiotic and cytotoxicity screens of Wong et al. (2023).

test system: HepG2; assay: cytotoxicity call (relative viability < 0.9); details: 10 µM
The whole screen tested about 39,000 compounds, of which about 3,300 (8.5%) were called active. Many of the other results were omitted from the sample, so actives are more common in it than they were.
Experimental Endpoint: cytotoxicity call

Some compounds with known cytotoxicity call results, for comparison:
Compound	Target Entity	cytotoxicity call
O=Cc1ccc[nH]1	HepG2	inactive
O=C(CCCCCCC(=O)Nc1ccc([C@H]2C[C@@H](CSc3nc(-c4ccccc4)c(-c4ccccc4)o3)O[C@H](c3ccccc3)O2)cc1)NO	HepG2	inactive
COc1cc(OC)nc([C@@H](NC(=O)C2CCN(CCN3C(=O)c4ccccc4C3=O)CC2)c2ccc(F)cc2)n1	HepG2	inactive
O=C(CCCCCCC(=O)Nc1ccc([C@H]2O[C@@H](CSc3nc(-c4ccccc4)c(-c4ccccc4)o3)C[C@H](c3ccc([N+](=O)[O-])cc3)O2)cc1)NO	HepG2	active
CCn1cc(C(=O)O)c(=O)c2cc(F)c(N3CCNC(C)C3)c(F)c21.Cl (stereo not given)	HepG2	inactive
O=C(N[C@@H](c1ccccc1)c1ccc2ccccc2n1)C1CCN(Cc2ccc(Cl)c(Cl)c2)CC1	HepG2	inactive
O=C(CCCCCCC(=O)Nc1ccc([C@@H]2O[C@H](CSc3nc(-c4ccccc4)c(-c4ccccc4)o3)C[C@H](c3ccccc3)O2)cc1)NO	HepG2	inactive
COc1cc2c(cc1OC)CN(C[C@H]1C[C@H](c3ccccc3)O[C@H](c3ccc(NC(=O)CCCCCCC(=O)NO)cc3)O1)CC2	HepG2	active

Lookup: cytotoxicity call / HepG2 / O=C(C[C@@H]1C=C[C@H](NC(=O)c2cnccn2)[C@@H](CO)O1)NCc1ccccc1F
inactive

Checklist item: cytotoxicity call tested on HepG2, entry O=C(CCCCCCC(=O)Nc1ccc([C@H]2O[C@@H](COc3ccccc3)C[C@H](c3ccccc3)O2)cc1)NO , value?
inactive

Return cytotoxicity call measured with HepG2 given this compound: O=C(CCCCCCC(=O)Nc1ccc([C@H]2O[C@@H](CSc3nc4ccccc4o3)C[C@H](c3ccccc3)O2)cc1)NO
active

###

system: HepG2; test: cytotoxicity call (relative viability < 0.9); conditions: 10 µM
In all, about 39,000 compounds went through this assay and about 3,300 (8.5%) were called active. The sample holds actives, similar compounds and a random draw of the others, so the mix is not that of the screen.
Valid outcomes are listed here; reply with one: True for active, False for inactive

Observe how each entry below is paired with its result.
Cc1ccc(S[C@]2(C(=O)NCCN3CCOCC3)CC(=O)N(Cc3cc(C(F)(F)F)cc(C(F)(F)F)c3)[C@@H]2c2ccc(CO)cc2I)cc1 False
O=C(Nc1nccs1)[C@@H]1[C@@H](CO)[C@@H]2Cn3c(cccc3=O)[C@H]1N2C(=O)C1CC1 False
Cc1noc(C)c1NC(=O)Nc1ccc2c(c1)C(=O)N([C@H](C)CO)C[C@H](C)[C@H](CN(C)S(=O)(=O)c1ccc(Cl)cc1)OCCCC[C@@H](C)O2 False
COc1ccccc1C#Cc1cnc2c(c1)C(=O)N([C@@H](C)CO)C[C@@H](C)[C@H](CN(C)C(=O)CC1CC1)O2 False
CC(=O)NCCCC[C@@H]1NC(=O)[C@H]2C[C@@H](C(=O)NCCCC[N+](C)(C)C)[C@@H](c3cccc(OCCO)c3)N2C1=O False
C[N+](C)(C)CCCCNC(=O)[C@H]1C[C@H]2C(=O)N3CCC[C@H]3C(=O)N2[C@H]1c1cccc(OCCO)c1 True
C[C@@H]1CN([C@@H](C)CO)C(=O)c2cc(NS(C)(=O)=O)ccc2O[C@@H](C)CCCCO[C@@H]1CN(C)S(=O)(=O)c1cn(C)cn1 False
C[C@@H]1CN([C@H](C)CO)C(=O)c2cc(NC(=O)Nc3ccc(C(F)(F)F)cc3)ccc2O[C@@H]1CN(C)C(=O)Nc1ccc2c(c1)OCO2 False
C[C@H](CO)N1C[C@H](C)[C@H](CN(C)S(C)(=O)=O)Oc2ccc(NS(=O)(=O)c3cccs3)cc2CC1=O False
C[N+](C)(C)CCCCNC(=O)[C@@H]1C[C@@H]2C(=O)N3CCC[C@H]3C(=O)N2[C@@H]1c1cccc(OCCO)c1 False

Recorded test outcome, item C[N+](C)(C)CCCCNC(=O)[C@H]1C[C@H]2C(=O)N[C@@H](CCCC[N+](C)(C)C)C(=O)N2[C@H]1c1cccc(OCCO)c1
False

Write down the call the test reported for this molecule. Item: C[N+](C)(C)CCCCCCNC(=O)[C@H]1C[C@H]2C(=O)N3CCC[C@H]3C(=O)N2[C@H]1c1cccc(OCCO)c1
False

Which outcome was entered for the molecule C[N+](C)(C)CCCCNC(=O)[C@@H]1C[C@@H]2C(=O)N[C@@H](CCCC[N+](C)(C)C)C(=O)N2[C@@H]1c1ccc(O)cc1 in this test?
False

Could you kindly confirm the outcome this assay logged for CC(=O)NCCCC[C@@H]1NC(=O)[C@@H]2C[C@H](C(=O)NCCCC[N+](C)(C)C)[C@H](c3cccc(OCCO)c3)N2C1=O ?
True
